Measured Plant response rating, Crabgrass, Large values are reported for all entries that follow.
- Tested on: large crabgrass (Digitaria sanguinalis)
- TEST NAME: Test B pre-/postemergence plant response
- Format: in vivo
- RUN PARAMETERS: Postemergence, 125 g ai/ha; scale 0 to 100 (0 no effect, 100 complete control)
# print the numeric value only

>>> readout_number("CCCn1c(-c2cccc(C(F)(F)F)c2)ncc(C(=O)C2=C(O)CCCC2=O)c1=O")
80

For record O=C(C1=C(O)C2CCC(C2)C1=O)c1cnc(-c2ccsc2)n(CC2CCCO2)c1=O (centres unmarked) the listed Plant response rating, Crabgrass, Large is 90

For record Cc1cc(-n2c(-c3cccc(F)c3)ncc(C(=O)C3=C(O)CCCC3=O)c2=O)ccc1F the listed Plant response rating, Crabgrass, Large is 100

For record O=C1CCCC(O)=C1C(=O)c1cnc(-c2cccs2)n(C2CCCCC2)c1=O the listed Plant response rating, Crabgrass, Large is 95

For record COCCCn1c(-c2cccc(Br)c2)ncc(C(=O)C2=C(O)CCCC2=O)c1=O the listed Plant response rating, Crabgrass, Large is 80

----------
- System: morningglory (Ipomoea spp.)
- TEST NAME: Test A pre-/postemergence plant response
- Assay type: in vivo
- RUN PARAMETERS: Postemergence, 125 g ai/ha; 0 to 100 scale where 0 is no effect and 100 is complete control
REPORTED ENDPOINT: Plant response rating, Morningglory
# print the numeric value only

# count of solved cases: 10
>>> readout_number("CC(C)CC(=O)OC1=C(C(=O)c2cnc(-c3ccccc3)n(-c3ccccc3)c2=O)C(=O)CCC1")
100
>>> readout_number("O=C1CCCC(O)=C1C(=O)c1cnc(-c2cc(F)cc(F)c2)n(C2CCCCC2)c1=O")
30
>>> readout_number("CCCn1c(-c2cccc(Cl)c2)ncc(C(=O)C2=C(O)CCCC2=O)c1=O")
100
>>> readout_number("O=C1CCCC(O)=C1C(=O)c1cnc(-c2ccccc2)n(C2CC[S+]([O-])CC2)c1=O (mixture of isomers)")
100
>>> readout_number("CCCCn1c(-c2ccccc2)ncc(C(=O)C2=C(O)CCCC2=O)c1=O")
90
>>> readout_number("COCCn1c(-c2ccsc2)ncc(C(=O)C2=C(O)C3CCC(C3)C2=O)c1=O (stereo not shown)")
100
>>> readout_number("CCn1c(-c2cccc(C)c2)ncc(C(=O)C2=C(O)C3CCC(C3)C2=O)c1=O (stereo not shown)")
90
>>> readout_number("CCc1cccc(-c2ncc(C(=O)C3=C(O)CCCC3=O)c(=O)n2C2CCCCC2)c1")
90
>>> readout_number("Cc1ccc(F)cc1-n1c(-c2cccc(Cl)c2)ncc(C(=O)C2=C(O)CCCC2=O)c1=O")
10
>>> readout_number("Cc1ccc(Cl)cc1-n1c(-c2cccc(Br)c2)ncc(C(=O)C2=C(O)CCCC2=O)c1=O")
30

For record O=C1CCCC(O)=C1C(=O)c1cnc(-c2cccc(F)c2)n(-c2ccccc2)c1=O the listed Plant response rating, Morningglory is 100

For record CCCCCn1c(-c2ccccc2)ncc(C(=O)C2=C(O)CCCC2=O)c1=O the listed Plant response rating, Morningglory is 100

For record O=C1CCCC(O)=C1C(=O)c1cnc(C2CCCCC2)n(-c2ccccc2)c1=O the listed Plant response rating, Morningglory is 100

For record CC1(C)CC(=O)C(C(=O)c2cnc(-c3ccccc3)n(-c3ccccc3)c2=O)=C(O)C1 the listed Plant response rating, Morningglory is 100

For record O=C1CCCC(OC(=O)C2CC2)=C1C(=O)c1cnc(-c2ccccc2)n(-c2ccccc2)c1=O the listed Plant response rating, Morningglory is 90

For record CCn1c(-c2ccccc2)ncc(C(=O)C2=C(O)C3CCC(C3)C2=O)c1=O (stereo not shown) the listed Plant response rating, Morningglory is 100
